Attribution: patent US11840495B2

System: NUCB1
Assay: Automated fixation/staining imaging assay, NUCB1 intensity (Example 3)
Type: cell-based
Conditions: 48 hour treatment time
Counter-ions that a name gives are not always drawn.
Parameter EC50: see the listing below.

{"columns": ["Molecule", "EC50 / µM"],
 "data": [
  ["N[C@]1(c2ccccc2)[C@@H]2CC[C@@H](C2)C12CCCC2 (racemic) [Compound 252]", 11.2],
  ["CC(C)[C@H]1[C@@H]2CC[C@@H](C2)[C@]1(C)N (single isomer, unassigned) [Compound 259]", 14.6],
  ["CC(C)[C@@H]1[C@@H]2CC[C@@H](C2)[C@]1(C)N (single isomer, unassigned) [Compound 258]", 9.77],
  ["CC1(C)[C@H]2CC[C@H](C2)[C@@]1(C)N (racemic) [Compound 242, hydrochloride]", 4.93]
]}
